Examples of compounds with documented relative viability follow.
- Tested on: IA-LM
- PROTOCOL_DETAILS: relative viability (nuclei count vs DMSO), 5 days (fraction); higher = more cells survive
- DETAILS: first compound 0.06325 µM
Enter the number alone.

Check out these entries, answers already filled in.
{"COMPOUND": "CCNC(=O)c1noc(-c2cc(C(C)C)c(O)cc2O)c1-c1ccc(CN2CCOCC2)cc1 [Luminespib] + O=C(c1cc(Cc2n[nH]c(=O)c3ccccc23)ccc1F)N1CCN(C(=O)C2CC2)CC1 [Olaparib] (partner 8 µM)", "OBSERVABLE": "relative viability", "READOUT_VALUE": 0.0533}
{"COMPOUND": "CCNC(=O)c1noc(-c2cc(C(C)C)c(O)cc2O)c1-c1ccc(CN2CCOCC2)cc1 [Luminespib] + CC1(C)CCC(c2ccc(Cl)cc2)=C(CN2CCN(c3ccc(C(=O)NS(=O)(=O)c4ccc(N[C@H](CCN5CCOCC5)CSc5ccccc5)c(S(=O)(=O)C(F)(F)F)c4)cc3)CC2)C1 [Navitoclax] (partner 0.5 µM)", "OBSERVABLE": "relative viability", "READOUT_VALUE": 0.061}
{"COMPOUND": "CCNC(=O)c1noc(-c2cc(C(C)C)c(O)cc2O)c1-c1ccc(CN2CCOCC2)cc1 [Luminespib] + CC(C)C[C@H](NC(=O)[C@H](Cc1ccccc1)NC(=O)c1cnccn1)B(O)O [Bortezomib] (partner 0.002 µM)", "OBSERVABLE": "relative viability", "READOUT_VALUE": 0.067}

// query Recall the recorded relative viability for CCNC(=O)c1noc(-c2cc(C(C)C)c(O)cc2O)c1-c1ccc(CN2CCOCC2)cc1 [Luminespib] + COc1cc2c(Oc3ccc(NC(=O)C4(C(=O)Nc5ccc(F)cc5)CC4)cc3F)ccnc2cc1OCCCN1CCOCC1 [Foretinib] (partner 0.25 µM) with IA-LM and state it.
// result 0.0645

----------
- System: NCI-H441
- PROTOCOL_DETAILS: relative viability (nuclei count vs DMSO), 5 days (fraction); higher = more cells survive
- DETAILS: first compound 6.325 µM
OBSERVABLE: relative viability
Just the number, please.

Answered cases to consult:
{"MOLECULE": "Cc1csc(=NC2CCCCC2)n1/N=C/c1ccc(O)c(O)c1O [MIM1] + N=C(N)NC(=N)NCCc1ccccc1 [Phenformin] (partner 250 µM)", "relative viability": 0.543}
{"MOLECULE": "Cc1csc(=NC2CCCCC2)n1/N=C/c1ccc(O)c(O)c1O [MIM1] + CC(=O)c1c(C)c2cnc(Nc3ccc(N4CCNCC4)cn3)nc2n(C2CCCC2)c1=O [Palbociclib] (partner 0.5 µM)", "relative viability": 0.186}
{"MOLECULE": "Cc1csc(=NC2CCCCC2)n1/N=C/c1ccc(O)c(O)c1O [MIM1] + C[C@@H](Oc1cc(-c2cnn(C3CCNCC3)c2)cnc1N)c1c(Cl)ccc(F)c1Cl [Crizotinib] (partner 1 µM)", "relative viability": 0.433}
{"MOLECULE": "Cc1csc(=NC2CCCCC2)n1/N=C/c1ccc(O)c(O)c1O [MIM1] + C[C@]1(O)C[C@@H](c2nc(-c3ccc4ccc(-c5ccccc5)nc4c3)c3c(N)nccn32)C1 [Linsitinib] (partner 1 µM)", "relative viability": 0.709}

Here is another molecule to look at.
// query Look at this molecule and give its reported relative viability. Cc1csc(=NC2CCCCC2)n1/N=C/c1ccc(O)c(O)c1O [MIM1] + COc1cccc2cc(-c3nc([C@H]4CC[C@H](C(=O)O)CC4)n4ncnc(N)c34)[nH]c12 [OSI-027] (partner 0.5 µM)
// result 0.472

Source of measurements: the supplement of paper PMC10307832
